The measurements presented in this section are drawn from the supplement of paper PMC7877785.

Assay: self-splicing fitness, log relative to wild type (ln ratio); higher = more splicing; Tetrahymena group I intron in knt gene, E. coli kanamycin selection, DiMSum; sequences stand for … in CUCUCU…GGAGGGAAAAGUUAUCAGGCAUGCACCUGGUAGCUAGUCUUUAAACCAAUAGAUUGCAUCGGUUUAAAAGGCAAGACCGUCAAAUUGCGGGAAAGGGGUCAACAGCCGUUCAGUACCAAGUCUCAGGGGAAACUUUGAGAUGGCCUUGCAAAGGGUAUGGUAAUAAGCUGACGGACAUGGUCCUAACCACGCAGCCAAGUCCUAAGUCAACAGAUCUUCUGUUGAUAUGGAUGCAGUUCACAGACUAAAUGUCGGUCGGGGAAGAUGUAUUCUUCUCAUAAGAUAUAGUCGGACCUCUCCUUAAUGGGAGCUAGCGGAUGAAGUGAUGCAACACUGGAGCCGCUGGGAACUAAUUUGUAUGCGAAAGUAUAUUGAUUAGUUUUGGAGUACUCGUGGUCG;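 further: selection with 25 µg/mL kanamycin versus none on LB agar overnight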
Conditions: 37 °C
Property Label: self-splicing fitness (ln)

Solved entries:
- Sequence Code: "UACUAGCAAUAUUACGAAUG"
  self-splicing fitness (ln): 0.689
- Sequence Code: "UUGCAGCAAUAUUACGGGUC"
  self-splicing fitness (ln): -1.7
- Sequence Code: "UUUCAGCAAUAUUACGAGAU"
  self-splicing fitness (ln): -2.72
- Sequence Code: "CGGGAGCAAUAUUACGUAGU"
  self-splicing fitness (ln): -1.78
- Sequence Code: "ACAGAGCAAUAUUACGUUCC"
  self-splicing fitness (ln): -1.81

-- ask Quick check: self-splicing fitness (ln) of UACCAGCAAUAUUACGAUGU ?
-- reply -1.41

-- ask Quick check: self-splicing fitness (ln) of CCACAGCAAUAUUACGAGUG ?
-- reply 0.0708
